// values below are reported DC50
- studyTarget: Androgen Receptor (AR) (Homo sapiens, UniProt P10275, T878A)
- Construct: cell based immuno-fluorescence assay using the LNCaP prostate epithelial cell line; endogenous in cells; host or cells: LNCaP clone FGC (ATCC CRL-1740)
- Sequence (P10275 1-920 T878A): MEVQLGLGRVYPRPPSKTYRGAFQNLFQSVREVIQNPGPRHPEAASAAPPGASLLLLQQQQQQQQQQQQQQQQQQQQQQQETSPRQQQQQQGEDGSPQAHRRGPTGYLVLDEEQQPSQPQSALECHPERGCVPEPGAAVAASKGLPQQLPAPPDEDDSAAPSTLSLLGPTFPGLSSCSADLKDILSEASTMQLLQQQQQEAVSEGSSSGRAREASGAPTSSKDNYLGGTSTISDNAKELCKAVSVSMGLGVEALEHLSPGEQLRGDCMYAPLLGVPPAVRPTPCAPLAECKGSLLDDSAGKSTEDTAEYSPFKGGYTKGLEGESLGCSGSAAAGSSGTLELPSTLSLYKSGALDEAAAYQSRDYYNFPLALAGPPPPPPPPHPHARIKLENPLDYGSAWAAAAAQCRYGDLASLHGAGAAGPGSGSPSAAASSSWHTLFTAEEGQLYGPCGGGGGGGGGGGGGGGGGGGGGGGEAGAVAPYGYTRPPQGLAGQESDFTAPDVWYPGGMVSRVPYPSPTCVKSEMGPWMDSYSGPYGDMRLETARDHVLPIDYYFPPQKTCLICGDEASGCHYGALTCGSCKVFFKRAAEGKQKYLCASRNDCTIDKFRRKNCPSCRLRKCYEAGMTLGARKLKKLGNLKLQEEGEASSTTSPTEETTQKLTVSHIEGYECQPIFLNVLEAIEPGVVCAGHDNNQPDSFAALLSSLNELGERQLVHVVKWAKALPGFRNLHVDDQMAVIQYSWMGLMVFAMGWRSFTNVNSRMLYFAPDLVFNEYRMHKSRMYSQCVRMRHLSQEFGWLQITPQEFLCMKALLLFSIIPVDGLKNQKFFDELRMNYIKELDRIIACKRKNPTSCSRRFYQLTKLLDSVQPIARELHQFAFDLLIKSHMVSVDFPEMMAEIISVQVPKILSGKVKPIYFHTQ
- protocolDetails: LNCaP Androgen Receptor Down-regulation Cell Assay (immunofluorescence end point)
- Assay type: cell-based
- appliedConditions: LNCaP prostate carcinoma cells, compound incubation 20-22 hours, 50% reduction of the AR signal; read-out: Androgen Receptor Down-regulation Assay (a) IC50/μM
readoutKind: DC50 (µM)

molecule | endpointUnit | endpointResult
FC(F)(F)c1nnc2ccc(N3CC4CN(Cc5ccncc5)CC4C3)nn12 (stereo not drawn) | µM | 2
N#Cc1cccc(OCC2CCN(c3ccc4nnc(C(F)(F)F)n4n3)CC2)c1 | µM | 3.5
FC(F)(F)c1nnc2ccc(N3CCN(Cc4cccnc4Br)CC3)nn12 | µM | 3
FC(F)(F)c1nnc2ccc(N3CCN(Cc4ccc(Br)cc4)CC3)nn12 | µM | 1.5
CS(=O)(=O)c1cccc(CN2CCCN(c3ccc4nnc(C(F)(F)F)n4n3)CC2)c1 | µM | 1.7
C[C@@H]1CN(c2ccc3nnc(C(F)(F)F)n3n2)CCN1Cc1cccnc1 | µM | 6.7
C[C@H](c1ccc(F)cc1)N1CCN(c2ccc3nnc(C(F)F)n3n2)CC1 | µM | 2
CSc1ccc(CN2CCN(c3ccc4nnc(C(F)(F)F)n4n3)CC2)cc1 | µM | 0.99
FC(F)(F)c1nnc2ccc(N3CC4CN(Cc5ccc(Br)nc5)CC4C3)nn12 (stereo not drawn) | µM | 1

---

- studyTarget: Androgen Receptor (AR) (Homo sapiens, UniProt P10275, T878A)
- Construct: cell based immuno-fluorescence assay using the LNCaP prostate epithelial cell line; endogenous in cells; host or cells: LNCaP clone FGC (ATCC CRL-1740)
- protocolDetails: LNCaP Androgen Receptor Down-regulation Cell Assay (immunofluorescence end point)
- Assay type: cell-based
- appliedConditions: LNCaP prostate carcinoma cells, compound incubation 20-22 hours, 50% reduction of the AR signal; read-out: Androgen Receptor Down-regulation Assay (a) IC50/μM
- Experimental: The ability of compounds to reduce Androgen Receptor (AR) numbers was assessed in a cell based immuno-fluorescence assay using the LNCaP prostate epithelial cell line. a) LNCaP Androgen Receptor Down-regulation Cell Assay […] Immunostaining was performed at room temperature. […] Then 50 μl of PBST was added to each well and plates were covered with a black plate seal and stored at 4° C. before being read. Plates were read within six hours of completing the immunostaining. […]
// values below are reported DC50

smilesStr | DC50, µM
CN1CCN(C(=O)c2cccc(C3CCN(c4ccc5nnc(C(F)(F)F)n5n4)CC3)c2)CC1 | 2.3
COC(=O)c1ccc(CN2CCN(c3ccc4nnc(C(F)(F)F)n4n3)CC2)cc1 | 4.8
FC(F)(F)c1nnc2ccc(N3CCCN(Cc4ccccc4Cl)CC3)nn12 | 0.68
FC(F)(F)c1nnc2ccc(N3CC=C(c4cccnc4)CC3)nn12 | 5

---

- studyTarget: Androgen Receptor (AR) (Homo sapiens, UniProt P10275, T878A)
- Construct: cell based immuno-fluorescence assay using the LNCaP prostate epithelial cell line; endogenous in cells; host or cells: LNCaP clone FGC (ATCC CRL-1740)
- protocolDetails: LNCaP Androgen Receptor Down-regulation Cell Assay (immunofluorescence end point)
- Assay type: cell-based
- appliedConditions: LNCaP prostate carcinoma cells, compound incubation 20-22 hours, 50% reduction of the AR signal; read-out: Androgen Receptor Down-regulation Assay (a) IC50/μM
readoutKind: DC50 (µM)

smilesStr | readoutKind | endpointUnit | inequalitySign | endpointResult
Cn1cncc1CN1CCN(c2ccc3nnc(C(F)(F)F)n3n2)CC1 | DC50 | µM | = | 23
CN1CCC(NC(=O)c2ccc(OC3CCN(c4ccc5nnc(C(F)(F)F)n5n4)CC3)cc2)CC1 | DC50 | µM | = | 4.3
C[C@@H]1CN(c2ccc3nnc(C(F)(F)F)n3n2)CCN1Cc1cccnc1Cl | DC50 | µM | = | 1.4
COc1ccccc1OC1CCN(c2ccc3nnc(C(F)(F)F)n3n2)CC1 | DC50 | µM | = | 1.8
FC1(F)Oc2ccc(CN3CCN(c4ccc5nnc(C(F)(F)F)n5n4)CC3)cc2O1 | DC50 | µM | = | 1.8
N#Cc1ccc(S(=O)(=O)N2CCN(c3ccc4nnc(C(F)(F)F)n4n3)CC2)cc1 | DC50 | µM | > | 33
COc1ccc(CN2CCN(c3ccc4nnc(C(F)(F)F)n4n3)CC2)cc1 | DC50 | µM | = | 2.5
Fc1cccc(F)c1CN1CCN(c2ccc3nnc(C(F)(F)F)n3n2)CC1 | DC50 | µM | = | 2.9
CN(CCO)C(=O)c1ccc(C2CCN(c3ccc4nnc(C(F)(F)F)n4n3)CC2)cc1 | DC50 | µM | = | 2.4
CCC(F)(F)c1nnc2ccc(N3CCN(Cc4cccc(C#N)c4)CC3)nn12 | DC50 | µM | = | 23
FC(F)(F)c1nnc2ccc(N3CC[C@H](Oc4ccncc4)C3)nn12 | DC50 | µM | = | 5.3
CCNC(=O)c1ccc(C2CCN(c3ccc4nnc(C(F)(F)F)n4n3)CC2)cc1 | DC50 | µM | = | 1.8
Fc1ccc(N2CCN(c3ccc4nnc(C(F)(F)F)n4n3)CC2)c(F)c1 | DC50 | µM | = | 4.2
CC(C)(c1ccc(F)cc1)N1CCN(c2ccc3nnc(C(F)(F)F)n3n2)CC1 | DC50 | µM | = | 1.6
FC(F)(F)c1nnc2ccc(N3CCC(c4ccc(OCCN5CCOCC5)cc4)CC3)nn12 | DC50 | µM | = | 1.1
Fc1ccc(C(F)F)c(CN2CCN(c3ccc4nnc(C(F)F)n4n3)CC2)c1 | DC50 | µM | = | 0.51
CN1CCN(CCCC(=O)Nc2cccc(C3CCN(c4ccc5nnc(C(F)(F)F)n5n4)CC3)c2)CC1 | DC50 | µM | = | 1

---

- studyTarget: Androgen Receptor (AR) (Homo sapiens, UniProt P10275, T878A)
- Construct: cell based immuno-fluorescence assay using the LNCaP prostate epithelial cell line; endogenous in cells; host or cells: LNCaP clone FGC (ATCC CRL-1740)
- protocolDetails: LNCaP Androgen Receptor Down-regulation Cell Assay (immunofluorescence end point)
- Type: cell-based
- appliedConditions: LNCaP prostate carcinoma cells, compound incubation 20-22 hours, 50% reduction of the AR signal; read-out: Androgen Receptor Down-regulation Assay (a) IC50/μM
So basically, the class depends on measured DC50, and the ranges are band 1 = under 2 µM, band 2 = from 2 µM up to 6 µM, band 3 = 6 µM and over

molecule | answerLabel
CC(F)(F)c1nnc2ccc(N3CCN(Cc4cccc(C#N)c4)CC3)nn12 | band 3
O=C(NCCN1CCOCC1)c1ccc(N2CCN(c3ccc4nnc(C(F)(F)F)n4n3)CC2)cc1 | band 2
COc1ccc(F)c(CN2CCN(c3ccc4nnc(C(F)F)n4n3)CC2)c1 | band 3
Fc1ccc(-c2nc(C3CCN(c4ccc5nnc(C(F)(F)F)n5n4)CC3)no2)cc1 | band 1
FC(F)(F)c1nnc2ccc(N3CCC(c4cccc(OCCN5CCNCC5)c4)CC3)nn12 | band 1
CC(C)(C)OC(=O)N1CC2CN(c3ccc4nnc(C(F)(F)F)n4n3)CC2C1 (stereo not shown) | band 3
O=C(NCCN1CCOCC1)c1ccc(C2CCN(c3ccc4nnc(C(F)(F)F)n4n3)CC2)cc1 | band 1
COCCOc1cccc(C2CCN(c3ccc4nnc(C(F)(F)F)n4n3)CC2)c1 | band 1
FC(F)(F)c1ncccc1CN1CCN(c2ccc3nnc(C(F)(F)F)n3n2)CC1 | band 2
CNC(=O)c1ccc(C2CCN(c3ccc4nnc(C(F)(F)F)n4n3)CC2)cc1 | band 2
FC(F)(F)c1nnc2ccc(N3CCC(c4ccc(OCCCN5CCNCC5)cc4)CC3)nn12 | band 1
FC(F)(F)c1nnc2ccc(N3CCN(CC4CCCCC4)CC3)nn12 | band 2
CN(C)CCCOc1cccc(C2CCN(c3ccc4nnc(C(F)(F)F)n4n3)CC2)c1 | band 1
O=C(c1ccc(C2CCN(c3ccc4nnc(C(F)(F)F)n4n3)CC2)cc1)N1CCNCC1 | band 3
CC(C)Cc1ccc(CN2CCN(c3ccc4nnc(C(F)(F)F)n4n3)CC2)cc1 | band 2
Fc1cccc(OCC2CN(c3ccc4nnc(C(F)(F)F)n4n3)C2)c1 [Example 491] | band 3
CN1CCC(NC(=O)c2ccc(C3CCN(c4ccc5nnc(C(F)(F)F)n5n4)CC3)cc2)CC1 | band 1
COC(=O)c1cccc(C2CCN(c3ccc4nnc(C(F)(F)F)n4n3)C2)c1 (stereo not shown) | band 1
OCc1cccc(CN2CCN(c3ccc4nnc(C(F)(F)F)n4n3)CC2)c1 | band 3
O=S(=O)(c1ccccc1F)N1CCCN(c2ccc3nnc(C(F)(F)F)n3n2)CC1 | band 2
Fc1cccc(CN2CCN(c3ccc4nnc(C(F)(F)F)n4n3)CC2)c1C(F)F | band 1
Fc1cc(CN2CCN(c3ccc4nnc(C(F)(F)F)n4n3)CC2)cc(C(F)F)c1 | band 1
COc1cccc(S(=O)(=O)N2CCN(c3ccc4nnc(C(F)(F)F)n4n3)CC2)c1 | band 1
FC(F)(F)c1nnc2ccc(N3CCN(Cc4cncc(Cl)c4)CC3)nn12 | band 3
FC(F)(F)c1nnc2ccc(N3CC4CN(Cc5ccccc5)CC4C3)nn12 (stereo not shown) | band 1
FC(F)(F)c1nnc2ccc(N3CCC(c4cccc(OCCN5CCCC5)c4)CC3)nn12 | band 1
COc1ccc(CN2CCN(c3ccc4nnc(C(F)F)n4n3)CC2)cc1F | band 3
CN1CCN(CCOc2ccc(C3CCN(c4ccc5nnc(C(F)(F)F)n5n4)CC3)cc2)CC1 | band 1
CN1CCC(NC(=O)c2cccc(OC3CCN(c4ccc5nnc(C(F)(F)F)n5n4)CC3)c2)CC1 | band 2
FC(F)(F)c1nnc2ccc(N3CC4CN(Cc5cncc(Br)c5)CC4C3)nn12 (stereo not shown) | band 1
Fc1cccc(F)c1CN1CCN(c2ccc3nnc(C(F)F)n3n2)CC1 | band 3
FC(F)(F)c1nnc2ccc(N3CCN(Cc4cscn4)CC3)nn12 | band 3

FYI, the data here is from patent US8003649B2.
